I'd be grateful if you could share measured melting point for these entries.

Give recorded melting point. COCC(C)N1CCc2sc(Nc3ncc(F)cn3)nc2-c2cn[nH]c21 (centres unmarked)
212 to 215 °C

Give recorded melting point. Fc1cnc(Nc2nc3c(s2)CCN(Cc2cccc(F)c2)c2[nH]ncc2-3)nc1
265 to 270 °C

Give recorded melting point. COCCN1CCc2sc(Nc3ncc(F)c(C)n3)nc2-c2cn[nH]c21
261 to 263 °C

Give recorded melting point. Cc1ccnc(Nc2nc3c(s2)CCN(CCCN2CCOCC2)c2[nH]ncc2-3)n1
251 °C

Give recorded melting point. Cn1ccc(CN2CCc3sc(Nc4ncc(F)cn4)nc3-c3cn[nH]c32)n1
195 to 200 °C

Give recorded melting point. COC(C)(C)CN1CCc2sc(Nc3ncc(F)cn3)nc2-c2cn[nH]c21
282 to 285 °C

Give recorded melting point. Cc1cccc(Nc2nc3c(s2)CCN(C[C@@H]2CCCO2)c2[nH]ncc2-3)n1
229 to 231 °C

Give recorded melting point. Fc1cnc(Nc2nc3c(s2)CCN(Cc2csc(C4CC4)n2)c2[nH]ncc2-3)nc1
240 to 245 °C
